System: foxtail, giant
Assay: Test C pre-/postemergence herbicide test
Type: in vivo, Setaria faberii
Conditions: Postemergence; 125 g ai/ha; scale 0 to 100 (0 no effect, 100 complete control)
REPORTED ENDPOINT: Plant response rating, Foxtail, Giant

COMPOUND	MEASURED
Cc1c(F)cccc1NC(=O)C1C(=O)NCC1c1ccc(F)c(F)c1 (racemic)	45
CN1CC(c2cccc(C(F)(F)F)c2)C(C(=O)Nc2cccc(F)c2F)C1=O (stereo not shown)	85
O=C1NCC(c2ccc(F)c(Cl)c2)C1C(=O)Nc1ccccc1F (stereo not shown)	30
O=C1NC[C@H](c2cccc(C(F)(F)F)c2)[C@H]1C(=O)Nc1ccccc1F	90

* * *

Each entry below carries its recorded Plant response rating (scale of 0 to 100), Nutsedge, Yellow.
Tested on: nutsedge, yellow
Experiment: Test C pre-/postemergence herbicide test
Assay type: in vivo, Cyperus esculentus
Conditions: Preemergence, 250 g ai/ha
REPORTED ENDPOINT: Plant response rating (scale of 0 to 100), Nutsedge, Yellow

MOLECULE	MEASURED
CC(C)c1cccc(C2CNC(=O)C2C(=O)Nc2ccccc2F)c1 (stereo not shown) [Compound 318]	0
CN1CC(c2ccc(C(F)(F)F)cc2)C(C(=O)Nc2cccc(F)c2F)C1=O (stereo not shown) [Compound 306]	10
O=C1NCC(c2cc(F)cc(F)c2)C1C(=O)Nc1ccccc1Cl (racemic) [Compound 280]	100
CN1CC(c2ccc(F)c(F)c2)C(C(=O)Nc2cccc(F)c2F)C1=O (stereo not shown) [Compound 303]	25
O=C1NCC(c2ccc(F)cc2)C1C(=O)Nc1ccc(F)c(F)c1F (racemic) [Compound 120]	0
O=C1NCC(c2cccc(Br)c2)C1C(=O)Nc1ccc(F)c(F)c1F (stereo not shown) [Compound 310]	0
O=C1NC[C@H](c2cccc(C(F)(F)F)c2)[C@H]1C(=O)Nc1ccccc1F [Compound 204]	0

* * *

System: goosegrass
Assay: Test E preemergence herbicide test
Type: in vivo, Eleusine indica
Set-up: key: 0 = no effect, 100 = complete control
Conditions: 250 g ai/ha
Each entry below carries its recorded Plant response rating, Goosegrass.
REPORTED ENDPOINT: Plant response rating, Goosegrass

COMPOUND	MEASURED
O=C1NC[C@H](c2cccc(C(F)(F)F)c2)[C@H]1C(=O)Nc1cccc(F)c1F [Compound 206]	90
O=C1NCC(c2ccc(OC(F)F)cc2)C1C(=O)Nc1cccc(F)c1F (racemic) [Compound 350]	25
O=C1NC[C@H](c2cccc(C(F)(F)F)c2)[C@H]1C(=O)Nc1ccccc1F [Compound 204]	0
O=C1NCC(c2ccc(Cl)c(Cl)c2)C1C(=O)Nc1ccccc1F (racemic) [Compound 14]	0

* * *

Test system: rice
Experiment: Test C flooded paddy test
Format: in vivo, Oryza sativa
Conditions: Flood; 1000 g ai/ha; scale 0 to 100
REPORTED ENDPOINT: Plant response rating, Rice

COMPOUND	TARGET UNDER TEST	REPORTED ENDPOINT	MEASURED
O=C1NCC(c2cccc(C(F)(F)F)c2)C1C(=O)Nc1nnc(C(F)(F)F)s1 (racemic)	rice	Plant response rating, Rice	0
O=C1NCC(c2ccc(F)c(C(F)(F)F)c2)C1C(=O)Nc1cccc(F)c1F (racemic)	rice	Plant response rating, Rice	20
O=C1NC[C@H](c2cccc(C(F)(F)F)c2)[C@H]1C(=O)Nc1cccc(F)c1F	rice	Plant response rating, Rice	15
O=C1NC[C@H](c2cccc(C(F)(F)F)c2)[C@H]1C(=O)Nc1ccccc1F	rice	Plant response rating, Rice	10

* * *

System: nutsedge, yellow
Test: Test C pre-/postemergence herbicide test
Assay type: in vivo, Cyperus esculentus
Details: Preemergence, 62 g ai/ha; scale 0 to 100 (0 no effect, 100 complete control)
Each entry below carries its recorded Nutsedge, Yellow plant response rating.

COMPOUND	Nutsedge, Yellow plant response rating
O=C1NCC(c2ccc(C(F)(F)F)cc2)C1C(=O)Nc1cccc(F)c1F (racemic)	0
O=C1NCC(c2cccc(C(F)(F)F)c2)C1C(=O)Nc1ccc(F)c(F)c1F (centres unmarked)	0
O=C1NCC(c2cccc(OC(F)F)c2)C1C(=O)Nc1cccc(F)c1F (centres unmarked)	10
O=C1NCC(c2ccc(Cl)cc2)C1C(=O)Nc1cccc(F)c1F (centres unmarked)	0
CN1CC(c2cccc(C(F)(F)F)c2)C(C(=O)Nc2cccc(F)c2F)C1=O (centres unmarked)	0

* * *

Each entry below carries its recorded Plant response rating, Blackgrass.
Tested on: blackgrass
Test: Test A postemergence herbicide test
Type: in vivo, Alopecurus myosuroides
Conditions: 125 g ai/ha, 0 to 100 scale, 0 no effect, 100 complete control

COMPOUND	Plant response rating, Blackgrass
Cc1ccccc1NC(=O)C1C(=O)NCC1c1cccc(C(F)(F)F)c1 (racemic)	50
O=C1NCC(c2cccc(C(F)(F)F)c2)C1C(=O)Nc1nnc(C(F)(F)F)s1 (racemic)	0
Cc1ccc(C2CNC(=O)C2C(=O)Nc2ccc(F)cc2F)cc1 (racemic)	0
Cc1cc(C2CNC(=O)C2C(=O)Nc2cccc(F)c2F)ccc1F (racemic)	0
Cc1cc(C2CNC(=O)C2C(=O)Nc2ccc(F)cc2F)ccc1F (racemic)	0
Cc1ccc(C2CNC(=O)C2C(=O)Nc2cccc(F)c2F)cc1F (racemic)	30

* * *

Test system: giant foxtail
Assay: Test A pre-/postemergence herbicide test
Assay type: in vivo, Setaria faberii
Conditions: Preemergence, 500 g ai/ha; visual rating on 0 to 100 scale (0 no effect, 100 complete control)
Each entry below carries its recorded Foxtail, Giant plant response rating.

COMPOUND	Foxtail, Giant plant response rating
O=C1NCC(c2ccc(SC(F)(F)F)cc2)C1C(=O)Nc1ccccc1F (stereo not drawn)	50
O=C1NCC(c2ccc(Br)c(Br)c2)C1C(=O)Nc1ccc(F)cc1F (stereo not drawn)	90
O=C1NCC(c2ccc(Br)c(Br)c2)C1C(=O)Nc1ccccc1F (stereo not drawn)	80
O=C1NCC(c2ccc(Br)c(Br)c2)C1C(=O)Nc1ccc(F)c(F)c1F (stereo not drawn)	90
O=C1NCC(c2ccc(OC(F)F)cc2)C1C(=O)Nc1cccc(F)c1F (racemic)	90
CCN1CC(c2ccc(C(F)(F)F)cc2)C(C(=O)Nc2ccccc2F)C1=O (stereo not drawn)	90
O=C1NCC(c2cccc(I)c2)C1C(=O)Nc1cccc(F)c1F (stereo not drawn)	90
CCN1CC(c2ccc(C(F)(F)F)cc2)C(C(=O)Nc2cccc(F)c2F)C1=O (stereo not drawn)	90
CC(C)c1cccc(C2CNC(=O)C2C(=O)Nc2ccccc2F)c1 (stereo not drawn)	90

* * *

Tested on: giant foxtail
Test: Test A pre-/postemergence herbicide test
Type: in vivo, Setaria faberii
Conditions: Preemergence, 1000 g ai/ha; visual rating on 0 to 100 scale (0 no effect, 100 complete control), approx. 10 days

COMPOUND	Plant response rating, Foxtail, Giant
O=C1NCC(c2ccc(F)c(F)c2)C1C(=O)Nc1cccc(Cl)c1 (racemic) [Compound 18]	80
Cc1ccccc1NC(=O)C1C(=O)NCC1c1ccc(F)c(F)c1 (racemic) [Compound 19]	90
O=C1NCC(c2ccc(Cl)c(Cl)c2)C1C(=O)Nc1ccccc1[N+](=O)[O-] (stereo not shown) [Compound 39]	80
O=C1NCC(c2ccc(F)c(F)c2)C1C(=O)Nc1cccnc1C(F)(F)F (racemic) [Compound 98]	90

* * *

Each entry below carries its recorded Plant response rating, Wheat.
Test system: wheat (winter wheat)
Assay: Test C pre-/postemergence herbicide test
Type: in vivo, Triticum aestivum
Details: Postemergence; 125 g ai/ha; scale 0 to 100 (0 no effect, 100 complete control)

COMPOUND	Plant response rating, Wheat
O=C1NCC(c2ccc(F)c(Cl)c2)C1C(=O)Nc1ccccc1F (stereo not shown)	5
O=C1NCC(c2ccc(C(F)(F)F)cc2)C1C(=O)Nc1cccc(F)c1F (racemic)	0
CN1CC(c2ccc(F)c(F)c2)C(C(=O)Nc2cccc(F)c2F)C1=O (stereo not shown)	0
O=C1NCC(c2cccc(OC(F)F)c2)C1C(=O)Nc1ccccc1F (stereo not shown)	0
CN1CC(c2ccc(C(F)(F)F)cc2)C(C(=O)Nc2cccc(F)c2F)C1=O (stereo not shown)	0
O=C1NCC(c2ccc(F)cc2)C1C(=O)Nc1ccc(F)c(F)c1F (racemic)	0
O=C1NCC(c2cc(F)c(F)c(F)c2)C1C(=O)Nc1cccc(F)c1F (stereo not shown)	5

* * *

System: foxtail, giant
Test: Test C pre-/postemergence herbicide test
Format: in vivo, Setaria faberii
Conditions: Preemergence, 62 g ai/ha; scale 0 to 100 (0 no effect, 100 complete control)

COMPOUND	Foxtail, Giant plant response rating
O=C1NCC(c2ccc(C(F)(F)F)cc2)C1C(=O)Nc1ccccc1F (centres unmarked) [Compound 231]	90
O=C1NCC(c2cc(F)cc(F)c2)C1C(=O)Nc1ccccc1Cl (racemic) [Compound 280]	80
O=C1NCC(c2ccc(F)c(F)c2)C1C(=O)Nc1ccc(F)c(F)c1F (centres unmarked) [Compound 346]	90
O=C1NCC(c2cccc(OC(F)F)c2)C1C(=O)Nc1cccc(F)c1F (centres unmarked) [Compound 224]	90
CN1CC(c2ccc(F)c(F)c2)C(C(=O)Nc2cccc(F)c2F)C1=O (centres unmarked) [Compound 303]	95
